All values here come from patent US4362743A.

Test system: Strep. Group C 64/848
Assay: Human bacteria MIC
Format: cell-based
Details: Strep. Group C 64/848; nutrient agar, 5% chocolated horse blood, 18 hours 37° C.; read-out: M.I.C.
Measurement Type: MIC (µg/mL)

1. C/C(=C\C(=O)OCCCC(=NNC(N)=O)c1ccccc1)C[C@@H]1OC[C@H](C[C@@H]2O[C@H]2[C@@H](C)[C@H](C)O)[C@@H](O)[C@H]1O [Example 2, 4-Phenyl-4-semicarbazonobutyl monate A]: 5
2. CON=C(CCCOC(=O)/C=C(\C)C[C@@H]1OC[C@H](C[C@@H]2O[C@H]2[C@@H](C)[C@H](C)O)[C@@H](O)[C@H]1O)c1ccccc1 [Example 5, 4-Methoxyimino-4-phenylbutyl monate A]: 2.5
3. C/C(=C\C(=O)OCCCC(=NO)c1ccccc1)C[C@@H]1OC[C@H](C[C@@H]2O[C@H]2[C@@H](C)[C@H](C)O)[C@@H](O)[C@H]1O [Example 1, 4-Hydroxyimino-4-phenylbutyl monate A]: 2.5
4. C/C(=C\C(=O)OCCCC(=NO)c1cccs1)C[C@@H]1OC[C@H](C[C@@H]2O[C@H]2[C@@H](C)[C@H](C)O)[C@@H](O)[C@H]1O: 1
5. C/C(=C\C(=O)OCc1ccc(C=NO)o1)C[C@@H]1OC[C@H](C[C@@H]2O[C@H]2[C@@H](C)[C@H](C)O)[C@@H](O)[C@H]1O [Example 7, 5-Hydroxyiminomethylfurfuryl monate A]: 2.5

----------
Experiment: in vivo
Conditions: mouse, po, 50 mg/kg
Measurement Type: concentration at 1.5 h

1) C/C(=C\C(=O)OCCCC(=NO)c1ccccc1)C[C@@H]1OC[C@H](C[C@@H]2O[C@H]2[C@@H](C)[C@H](C)O)[C@@H](O)[C@H]1O [Example 1, 4-Hydroxyimino-4-phenylbutyl monate A]: < 200 ng/mL
2) C/C(=C\C(=O)OC1CCC(=NO)CC1)C[C@@H]1OC[C@H](C[C@@H]2O[C@H]2[C@@H](C)[C@H](C)O)[C@@H](O)[C@H]1O (stereo partly drawn) [Example 3, 4-Hydroxyiminocyclohexyl monate A]: 600 ng/mL
3) C/C(=C\C(=O)OCCCCCC=NN(C)C)C[C@@H]1OC[C@H](C[C@@H]2O[C@H]2[C@@H](C)[C@H](C)O)[C@@H](O)[C@H]1O [Example 6, 6-Dimethylhydrazonohexyl monate A]: < 600 ng/mL

----------
Assay: in vivo
Settings: mouse, po, 50 mg/kg
Measurement Type: concentration at 10 min (ng/mL)

1) C/C(=C\C(=O)OC1CCC(=NO)CC1)C[C@@H]1OC[C@H](C[C@@H]2O[C@H]2[C@@H](C)[C@H](C)O)[C@@H](O)[C@H]1O (stereo partly drawn) [Example 3, 4-Hydroxyiminocyclohexyl monate A]: 3500
2) C/C(=C\C(=O)OCCCC(=NO)c1ccccc1)C[C@@H]1OC[C@H](C[C@@H]2O[C@H]2[C@@H](C)[C@H](C)O)[C@@H](O)[C@H]1O [Example 1, 4-Hydroxyimino-4-phenylbutyl monate A]: 790
3) C/C(=C\C(=O)OCCCCCC=NN(C)C)C[C@@H]1OC[C@H](C[C@@H]2O[C@H]2[C@@H](C)[C@H](C)O)[C@@H](O)[C@H]1O [Example 6, 6-Dimethylhydrazonohexyl monate A]: 3400
